Experiment: Solubility in PBS
Type: physicochemical
Settings: Solubility (uM)
Solubility reference
Reply numerically in µM, unit not repeated.

molecule	quantity.unit	Solubility
CC(=O)N1CCC[C@]12CC=CCCCC1(CCCC=CCCCOC(=O)N3CC[C@@](C(=O)N[C@@H](Cc4ccsc4)C(=O)N[C@@H](Cc4csc5ccccc45)C(=O)N[C@@H](CCC(N)=O)C(N)=O)(C3)NC(=O)[C@H](CC(N)=O)NC(=O)[C@H](Cc3ccccc3)NC(=O)[C@H](C)NC(=O)[C@H](C)NC(=O)[C@H]([C@@H](C)O)NC(=O)[C@H](CC(=O)O)NC1=O)NC(=O)[C@H](CC(C)(C)C)NC(=O)[C@H](CC(=O)O)NC2=O (some centres unmarked) [I-844]	µM	35

We next turn to a different molecule, shown below.
The molecule CC(=O)N1CCC[C@]12CC=CCCCC1(CCCC=CCCCOC(=O)N3CC[C@@](C(=O)N[C@@H](Cc4ccsc4)C(=O)N[C@@H](Cc4csc5ccccc45)C(=O)N[C@@H](CCC(N)=O)C(N)=O)(C3)NC(=O)[C@H](CC(C)C)NC(=O)[C@H](Cc3ccccc3)NC(=O)[C@H](C)NC(=O)[C@H](C)NC(=O)[C@H](CC(=O)O)NC(=O)[C@H](CCC(N)=O)NC1=O)NC(=O)[C@H](CC(C)(C)C)NC(=O)[C@H](CC(=O)O)NC2=O (some centres unmarked) [I-1211] showed Solubility equal to 11

###

Assay: CHI Log D procedure
Assay type: physicochemical
Settings: pH 7.4
property: CHI Log D
Form field (numeric): enter value without unit.

Reference set (2 entries):
molecule	CHI Log D
CC(=O)N[C@@H](Cc1ccccc1)C(=O)N[C@@H](CC(=O)O)C(=O)N[C@]1(C)CCN(C)C(=O)OCC=CCCCCC[C@@](C)(C(=O)N[C@@H](C)C(=O)N[C@@H](Cc2ccccc2)C(=O)N[C@@H](Cc2c[nH]c3ccccc23)C(=O)N[C@@H](CCC(N)=O)C(N)=O)NC(=O)[C@H](Cc2ccccc2)NC(=O)[C@H](C)NC(=O)[C@H](C)NC(=O)[C@H](CC(=O)O)NC(=O)[C@H](CC(=O)O)NC(=O)[C@H](C)NC1=O (single isomer, unassigned)	1.201
CC(=O)NC(C)(C)C(=O)N[C@@H](CC(=O)O)C(=O)N[C@@H](C)C(=O)N[C@]1(C)CCCCCCC=CCOC(=O)N2CC[C@@](C(=O)N[C@@H](Cc3ccccc3)C(=O)N[C@@H](Cc3c[nH]c4ccccc34)C(=O)NC(C)(C)C(N)=O)(C2)NC(=O)[C@H](C(C)C)NC(=O)[C@H](Cc2ccccc2)NC(=O)[C@H](C)NC(=O)[C@H](C)NC(=O)[C@H](CCC(=O)O)NC(=O)[C@H](CC(=O)O)NC1=O [I-159]	1.452

Kindly consider the entry below.
The recorded CHI Log D for entry CC[C@H](C)[C@@H]1NC(=O)[C@H](CC(=O)O)NC(=O)[C@]2(CC=CCCCC3(CCCC=CCCCCCC[C@@](C)(C(=O)N[C@@H](Cc4ccccc4)C(=O)N[C@@H](Cc4c[nH]c5ccccc45)C(N)=O)NC(=O)[C@H](CCC(N)=O)NC(=O)[C@H](Cc4ccccc4)NC(=O)[C@H](C)NC(=O)[C@H](C)NC(=O)[C@H](CCC(=O)O)NC(=O)[C@H](CC(=O)O)NC3=O)NC1=O)CCCN2C(C)=O (stereo partly drawn) [I-192] equals 2.412

###

Assay: Solubility in PBS
Assay type: physicochemical
Reported Solubility is given for each of the following compounds.
Answer format: value, then unit.

Record excerpt, results attached:
compound	Solubility
CC(=O)N1CCC[C@]12CC=CCCCC1(CCCC=CCCCOC(=O)N3CC[C@@](C(=O)N[C@@H](Cc4ccccc4Cl)C(=O)N[C@@H](Cc4csc5ccccc45)C(=O)N[C@@H](CCC(N)=O)C(N)=O)(C3)NC(=O)[C@H](CC(N)=O)NC(=O)[C@H](Cc3ccccc3)NC(=O)[C@H](C)NC(=O)[C@H](C)NC(=O)[C@H](CC(=O)O)NC(=O)[C@H](CC(=O)O)NC1=O)NC(=O)[C@H](Cc1ccccc1)NC(=O)[C@H](CC(=O)O)NC2=O (some centres unmarked)	50 µM
CC(=O)N1CCC[C@]12CC=CCCCC1(CCCC=CCCCOC(=O)N3CC[C@@](C(=O)N[C@@H](Cc4ccsc4)C(=O)N[C@@H](Cc4csc5ccccc45)C(N)=O)(C3)NC(=O)[C@H](CC(N)=O)NC(=O)[C@H](Cc3ccccc3)NC(=O)[C@H](C)NC(=O)[C@H](C)NC(=O)[C@H](Cc3c[nH]cn3)NC(=O)[C@H](CC(=O)O)NC1=O)NC(=O)[C@H](CC(C)(C)C)NC(=O)[C@H](CC(=O)O)NC2=O (some centres unmarked)	10 µM
CC(=O)N1CCC[C@]12CC=CCCCC1(CCCC=CCCCOC(=O)N3CC[C@@](C(=O)N[C@@H](Cc4ccsc4)C(=O)N[C@@H](Cc4csc5ccccc45)C(=O)N[C@@H](CO)C(N)=O)(C3)NC(=O)[C@H](CC(N)=O)NC(=O)[C@H](Cc3ccccc3)NC(=O)[C@H](C)NC(=O)[C@H](C)NC(=O)[C@H](CN(CC(=O)O)CC(F)(F)F)NC(=O)[C@H](CC(=O)O)NC1=O)NC(=O)[C@H](CC(C)(C)C)NC(=O)[C@H](CC(=O)O)NC2=O (some centres unmarked) [I-941]	46 µM
CC(=O)N1CCC[C@]12CC=CCCCC1(CCCC=CCCCCCC[C@@](C)(C(=O)N[C@@H](Cc3ccccc3)C(=O)N[C@@H](Cc3csc4ccccc34)C(=O)N[C@@H](CCC(N)=O)C(N)=O)NC(=O)[C@H](CC(N)=O)NC(=O)[C@H](Cc3ccccc3)NC(=O)[C@H](C)NC(=O)[C@H](C)NC(=O)[C@H](CC(=O)O)NC(=O)[C@H](CC(=O)O)NC1=O)NC(=O)[C@H](CC(C)(C)C)NC(=O)[C@H](CC(=O)O)NC2=O (some centres unmarked)	50 µM

API: the following record is the query input.
The reported value for C[C@@H]1NC(=O)[C@H](C)NC(=O)[C@H](CC(=O)O)NC(=O)[C@H](CC(=O)O)NC(=O)C2(CCCC=CCCCOC(=O)N3CC[C@@](C(=O)N[C@@H](Cc4ccsc4)C(=O)N[C@@H](Cc4csc5ccccc45)C(=O)N[C@@H](C(N)=O)[C@H](C)O)(C3)NC(=O)[C@H](CC(N)=O)NC(=O)[C@H](Cc3ccccc3)NC1=O)CCCC=CC[C@]1(CCCN1C(=O)CN=[N+]=[N-])C(=O)N[C@@H](CC(=O)O)C(=O)N[C@@H](CC(C)(C)C)C(=O)N2 (some centres unmarked) in terms of Solubility is 42 µM

###

Listing: IC50 of selected compounds
Target: beta-catenin/TCF4 engagement (Homo sapiens, UniProt P35222)
Construct: expressed in transfected cells; host or cells: HEK293
Sequence (P35222 whole entry): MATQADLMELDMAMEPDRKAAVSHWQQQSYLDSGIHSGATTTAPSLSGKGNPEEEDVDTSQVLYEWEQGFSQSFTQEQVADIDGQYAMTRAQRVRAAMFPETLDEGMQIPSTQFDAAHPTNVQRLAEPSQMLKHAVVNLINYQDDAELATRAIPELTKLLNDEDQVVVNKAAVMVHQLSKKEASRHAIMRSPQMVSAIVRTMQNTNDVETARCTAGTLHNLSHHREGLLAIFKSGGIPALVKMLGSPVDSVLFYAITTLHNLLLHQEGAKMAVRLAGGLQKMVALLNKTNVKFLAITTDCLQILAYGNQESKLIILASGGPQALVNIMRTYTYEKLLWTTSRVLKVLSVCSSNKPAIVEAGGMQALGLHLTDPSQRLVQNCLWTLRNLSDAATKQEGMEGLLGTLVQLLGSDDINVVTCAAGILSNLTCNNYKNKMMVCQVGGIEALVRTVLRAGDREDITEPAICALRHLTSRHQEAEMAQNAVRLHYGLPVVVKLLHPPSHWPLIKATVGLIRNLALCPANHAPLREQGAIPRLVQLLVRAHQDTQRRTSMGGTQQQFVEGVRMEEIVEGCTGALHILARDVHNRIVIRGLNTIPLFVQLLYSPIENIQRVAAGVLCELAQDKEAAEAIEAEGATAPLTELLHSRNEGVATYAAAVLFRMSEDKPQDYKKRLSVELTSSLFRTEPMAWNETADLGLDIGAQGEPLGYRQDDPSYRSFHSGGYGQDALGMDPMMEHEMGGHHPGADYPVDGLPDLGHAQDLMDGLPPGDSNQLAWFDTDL
Assay: Nano-BRET target engagement assay (B-cat-Halo & TCF4-Luc in HEK293 cells)
Assay type: cell-based
Conditions: read-out: NanoBRET IC50
Expressed in µM, but write only the number.

The observed IC50 for CC(=O)N1CCC[C@]12CC=CCCCC1(CCCC=CCCCOC(=O)N3CC[C@@](C(=O)N[C@@H](Cc4ccsc4)C(=O)N[C@@H](Cc4csc5ccccc45)C(=O)N[C@@H](CCC(N)=O)C(N)=O)(C3)NC(=O)[C@H](Cc3ccccc3)NC(=O)[C@H](Cc3ccccc3)NC(=O)[C@H](C)NC(=O)[C@H](C)NC(=O)[C@H](CC(=O)O)NC(=O)[C@H](CC(=O)O)NC1=O)NC(=O)[C@H](CC(C)(C)C)NC(=O)[C@H](CC(=O)O)NC2=O (stereo partly drawn) [I-807] when tested with beta-catenin/TCF4 engagement (Homo sapiens, UniProt P35222) stands at 5.3

beta-catenin/TCF4 engagement (Homo sapiens, UniProt P35222) data for CC(=O)N1CCC[C@]12CC=CCCCC1(CCCC=CCCCCCC[C@@](C)(C(=O)N[C@@H](Cc3ccccc3)C(=O)N[C@@H](Cc3csc4ccccc34)C(=O)N[C@@H](CCC(N)=O)C(N)=O)NC(=O)[C@H](CCC(N)=O)NC(=O)[C@H](Cc3ccccc3)NC(=O)[C@H](C)NC(=O)[C@H](C)NC(=O)[C@H](CCC(=O)O)NC(=O)[C@H](CC(=O)O)NC1=O)NC(=O)[C@H](CC(C)C)NC(=O)[C@H](CC(=O)O)NC2=O (stereo partly drawn) [I-505] ; its IC50: 5.6

Hey, beta-catenin/TCF4 engagement (Homo sapiens, UniProt P35222) data for CC(=O)N1CCC[C@]12CC=CCCCC1(CCCC=CCCCOC(=O)N3CC[C@@](C(=O)N[C@@H](Cc4ccsc4)C(=O)N[C@@H](Cc4csc5ccccc45)C(N)=O)(C3)NC(=O)[C@H](CC(N)=O)NC(=O)[C@H](Cc3ccccc3)NC(=O)[C@H](C)NC(=O)[C@H](C)NC(=O)[C@H](CC(N)=O)NC(=O)[C@H](CC(=O)O)NC1=O)NC(=O)[C@H](CC(C)(C)C)NC(=O)[C@H](CC(=O)O)NC2=O (stereo partly drawn) [I-857] : IC50 came out at 50.6
